These records show GI50 for HCT-15.
Counter-ions that a name gives are not always drawn.
TEST READOUT: GI50 (µM)

molecule="CC(=O)N1N=C(c2ccc3ccccc3c2O)CC1c1ccc(N(C)C)cc1 (centres undefined)" test_readout=GI50 relation=> observed_value=100
molecule="COc1c(OC(C)=O)cc2c(OC(C)=O)c1CC(C)CC(OC)C(O)C(C)/C=C(\\C)C(OC(N)=O)C(OC)/C=C\\C=C(/C)C(=O)N2 (centres undefined)" test_readout=GI50 relation=> observed_value=64.7
molecule="CN1[C@@H]2CC[C@H]1C[C@@H](OC(c1ccccc1)c1ccccc1)C2 [BENZTROPINE MESYLATE]" test_readout=GI50 relation== observed_value=22.5
molecule="O=S1(=O)c2ccccc2NC(=S)CC1c1ccccc1 (centres undefined)" test_readout=GI50 relation=> observed_value=100
molecule=C[C@@H](NC(=O)[C@@H]1C[C@]1(C)COC(=O)c1cc([N+](=O)[O-])cc([N+](=O)[O-])c1)c1cccc2ccccc12 test_readout=GI50 relation=> observed_value=100
molecule="N#CC1=C(c2ccccc2)C(O)(c2ccccc2)NC1=O (centres undefined)" test_readout=GI50 relation=> observed_value=100
molecule=CCCCCCc1cc(C(=O)Nc2cccc(C(F)(F)F)c2)nc(N)n1 test_readout=GI50 relation=> observed_value=100
molecule=C=C1C(=O)O[C@H]2[C@@H](O)[C@H](C)CCC/C(C)=C/CC[C@@]3(C)O[C@@H]3C[C@@H]12 test_readout=GI50 relation== observed_value=1.92
molecule=Cc1cc(C)c(C(=O)O)c(N)c1O test_readout=GI50 relation=> observed_value=100
molecule="COc1cc2c(cc1OC)C(CC1=C(c3ccccc3)CN3CCc4cc(OC)c(OC)cc4C3C1)NCC2 (centres undefined)" test_readout=GI50 relation== observed_value=17.7
molecule="CC(=O)OC1=C2CC[C@@H]3C(CC[C@@]4(C)C3CC[C@@H]4OC(C)=O)[C@@]2(C)CC(C#N)C1=O (some centres undefined)" test_readout=GI50 relation== observed_value=28.9
molecule=C1CSCC2(COC2)CSCCSCC2(COC2)CS1 test_readout=GI50 relation=> observed_value=100
molecule=CC(C)C1=Cc2ccc3c(c2C(=O)C1=O)CCCC3 test_readout=GI50 relation== observed_value=3.08
molecule="COC(=O)CN(CC1O[C@@H]2OC(C)(C)O[C@@H]2C1N=[N+]=[N-])C(=O)OCc1ccccc1 (some centres undefined)" test_readout=GI50 relation=> observed_value=100
molecule="Nc1ccc(C(=O)O)cc1 [AMINOBENZOIC ACID]" test_readout=GI50 relation== observed_value=21.1
molecule=Nc1ccc2c(c1)C(=O)c1c(F)cccc1-2 test_readout=GI50 relation== observed_value=39.3
molecule="O=C1CSC(/C=C/c2ccccc2)N1c1ccc(-n2c(-c3ccccc3)nc3ccccc3c2=O)cc1 (centres undefined)" test_readout=GI50 relation== observed_value=86.9
molecule=Brc1cccc(/C=C/CN2CCN(CCOC(c3ccccc3)c3ccccc3)CC2)c1 test_readout=GI50 relation== observed_value=15.6
molecule=COc1ccc(NC(=O)CC(=O)NN2C(=O)/C(=C/c3ccc(N(CCC#N)CCC#N)cc3C)N=C2/C=C\c2ccccc2)cc1 test_readout=GI50 relation=> observed_value=100

---

system: Hs-578T; assay: NCI tumour cell line growth inhibition, 48 h
Activity calls are given as the source filed them. Cut-off read from the data, not from the text of the source: active = GI50 up to about 1.1 µM and inactive = higher.
Overview of recorded GI50 for various molecules
TEST READOUT: GI50

smiles_code=CC(C)(CCc1nc2ccccc2[nH]1)C(=O)O system_name=Hs-578T observed_value="> 100 µM (inactive)"
smiles_code=NNc1nncc2[nH]cnc12 system_name=Hs-578T observed_value="> 100 µM (inactive)"
smiles_code=CC(C)=C1C(=O)C[C@]2(C)C[C@H]3O[C@]3(C)CC[C@@H]3O[C@@]3(C)CC[C@@H]12 system_name=Hs-578T observed_value="> 50 µM (inactive)"
smiles_code=COc1ccc(NC(=O)C(=O)Cc2nc3ccc(C(=O)c4ccccc4)cc3nc2O)c([N+](=O)[O-])c1 system_name=Hs-578T observed_value="> 100 µM (inactive)"

---

tested on: OVCAR-4; experiment: NCI tumour cell line growth inhibition, 48 h
The source made the active and inactive calls. No stated cut-off is given here; in the data, active = GI50 up to about 1.1 µM and inactive = higher.
Overview of recorded GI50 for various compounds
TEST READOUT: GI50

smiles_code=CC(C)OP(=O)(OC(C)C)/C(=N/Nc1ccc([N+](=O)[O-])cc1)NCCN/C(=N\Nc1ccc([N+](=O)[O-])cc1)P(=O)(OC(C)C)OC(C)C observed_value="7.19 µM (inactive)"
smiles_code=Cn1c(=O)c2nc(CSCc3ccccc3)[nH]c2n(C)c1=O observed_value="> 100 µM (inactive)"
smiles_code=COCN(C)c1nc(N(C)C)nc(N(C)C)n1 observed_value="> 100 µM (inactive)"
smiles_code=CN1CCN(C)C12C=c1ccccc1=CC21CC1 observed_value="71.3 µM (inactive)"
smiles_code=CCOC(=O)/C(C#N)=C/c1[nH]c(C)c(C)c1C observed_value="> 100 µM (inactive)"

---

tested on: NCI-H226; test: NCI tumour cell line growth inhibition, 48 h
Activity calls are given as the source filed them. Cut-off read from the data, not from the text of the source: active = GI50 up to about 1.1 µM and inactive = higher.
Overview of recorded GI50 for various molecules
TEST READOUT: GI50

molecule=COc1ccc(/C(=N/N=c2\[nH]c3ccccc3n2Cc2ccccc2)C(=O)O)cc1 test_readout=GI50 observed_value="20.2 µM (inactive)"
molecule=CCCCNC(=S)N/N=C/c1cccc(C)n1 test_readout=GI50 observed_value="27.8 µM (inactive)"
molecule=CCOC(=O)/C(C#N)=C/c1[nH]c(C)c(C)c1C test_readout=GI50 observed_value="> 100 µM (inactive)"
molecule="O=C1CSC(/C=C/c2ccccc2)N1c1ccc(-n2c(-c3ccccc3)nc3ccccc3c2=O)cc1 (stereo not given)" test_readout=GI50 observed_value="48.8 µM (inactive)"
molecule=CN1CCN(C)C12C=c1ccccc1=CC21CC1 test_readout=GI50 observed_value="> 100 µM (inactive)"
molecule="N#CC12CCC(O)C(CC1)C2=O (stereo not given)" test_readout=GI50 observed_value="> 100 µM (inactive)"
molecule=Cc1cc([N+](=O)[O-])ccc1/N=N/C(=O)NNc1ccc([N+](=O)[O-])cc1C test_readout=GI50 observed_value="15.3 µM (inactive)"
molecule=CC(=O)O[C@H]1CC[C@@]2(C)C(=CC[C@@H]3[C@@H]2CC[C@]2(C)c4nc(Cl)ccc4C[C@@H]32)C1 test_readout=GI50 observed_value="> 100 µM (inactive)"
molecule="Cn1c(=O)c2c(nc3n(CC(O)CCl)c(=O)ccn23)n(C)c1=O (stereo not given)" test_readout=GI50 observed_value="22.6 µM (inactive)"
molecule="NNC(=O)N/N=C1\\CN(c2ccc(Cl)cc2Cl)C(=O)C(=O)C1c1nc2ccccc2o1 (stereo not given)" test_readout=GI50 observed_value="> 100 µM (inactive)"
molecule="NC1CC(n2ccc(=O)[nH]c2=O)OC1C(O)CO (stereo not given)" test_readout=GI50 observed_value="> 100 µM (inactive)"
molecule=Cc1ccc(Nc2nc(C)c(C(/C=C/c3ccc(/C=C/C(=N/NC(=O)C[n+]4ccccc4)c4sc(Nc5ccc(C)cc5[N+](=O)[O-])nc4C)cc3)=N\NC(=O)C[n+]3ccccc3)s2)c([N+](=O)[O-])c1 test_readout=GI50 observed_value="14.6 µM (inactive)"
molecule=NCC(=O)Nc1ccc(S(=O)(=O)O)c2cc(S(=O)(=O)O)cc(S(=O)(=O)O)c12 test_readout=GI50 observed_value="> 100 µM (inactive)"
molecule="COc1cc(/C=C/c2ccc(OC)c(OC)c2)cc(OC)c1 [(E)-3,4,3',5'-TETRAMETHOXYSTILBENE]" test_readout=GI50 observed_value="30.2 µM (inactive)"
molecule=O=C1c2cccc3cc([N+](=O)[O-])cc(c23)C(=O)N1O test_readout=GI50 observed_value="31 µM (inactive)"
molecule=CC(=O)Oc1cc(OC(C)=O)c2c(=O)c3ccccc3[nH]c2c1 test_readout=GI50 observed_value="27.5 µM (inactive)"
molecule=CC(C)(C)c1ccc2c(c1)OP1(Oc3cccc4cccnc34)(O2)Oc2ccc(C(C)(C)C)cc2O1 test_readout=GI50 observed_value="8.49 µM (inactive)"
molecule="CN(Cc1cnc2nc(N)nc(N)c2n1)c1ccc(C(=O)NC(CO)CCCO)cc1 (stereo not given)" test_readout=GI50 observed_value="> 100 µM (inactive)"
molecule=O=C(Nc1ccc2ncccc2c1)c1cc2c(cc1Cl)Sc1nccn1S2(=O)=O test_readout=GI50 observed_value="18.1 µM (inactive)"
molecule=Cc1cc(C)nc(NC(P(=O)(O)O)P(=O)(O)O)n1 test_readout=GI50 observed_value="> 100 µM (inactive)"

---

test system: NCI/ADR-RES; experiment: NCI tumour cell line growth inhibition, 48 h
The source made the active and inactive calls. Rule as the data show it: active = GI50 up to about 1.1 µM and inactive = higher. Where a SMILES comes first, the peptide text is derived from it.
TEST READOUT: GI50

compound=CC1(C)C(=O)/C(=C/c2ccccc2)C(C)(C)C1(C)C observed_value="> 90.6 µM (inactive)"
compound="CC(C)=CC1C(COC(=O)c2ccccc2Cl)C1(C)C (configuration not stated)" observed_value="41.2 µM (inactive)"
compound="O=P(O)(O)OC1O[C@H](CO)[C@H](O)[C@H](O)[C@H]1O (some centres not stated)" observed_value="> 100 µM (inactive)"
compound=COc1cccc(/N=C/c2cc(OC)c(OC)c(OC)c2)c1 observed_value="> 100 µM (inactive)"
compound=O=C(O)CN(CC(=O)O)Cc1cc(C#Cc2ccc(C#Cc3ccccc3)cc2)cc(CN(CC(=O)O)CC(=O)O)n1 observed_value="12.7 µM (inactive)"
compound=CCSc1s/c(=N/c2ccc(/N=c3\sc(C)c(SC)s3)cc2)sc1-c1ccc(C)cc1 observed_value="> 100 µM (inactive)"
compound=CC(=N\N=C\c1ccccn1)/C(C)=N/N=C(C)/C(C)=N/N=C/c1ccccn1 observed_value="> 100 µM (inactive)"
compound=CSCCCNC(=O)c1csc(-c2csc(CCN)n2)n1 observed_value="> 100 µM (inactive)"
compound="CC(=O)NC(CS)C(=O)NC(CO)C(=O)NC(CO)C(=O)NC(Cc1c[nH]c2ccccc12)C(=O)N1CCCC1C(=O)NC(CO)C(=O)NC(Cc1c[nH]c2ccccc12)C(=O)NC(Cc1c[nH]cn1)C(=O)NC(CO)C(=O)NC(Cc1c[nH]c2ccccc12)C(=O)NCC(=O)NCC(=O)NC(CC(=O)O)C(=O)NC(CCC(N)=O)C(=O)NC(CCCCN)C(=O)NC(Cc1ccccc1)C(=O)NC(CCCNC(=N)N)C(=O)NC(CCCCN)C(N)=O (configuration not stated) (Ac-CSSWPSWHSWGGDQKFRK-NH2; configuration not given here)" observed_value="> 25 µM (inactive)"
compound=CCc1nnc(S)n1/N=C\c1ccc(-c2ccccc2[N+](=O)[O-])o1 observed_value="26.3 µM (inactive)"
compound=C=C(C)C1(Sc2ccc(OC)cc2)CC1 observed_value="37.4 µM (inactive)"
compound=COc1ccc(NC(=S)N/N=C(\c2ccccc2)c2ccccn2)cc1 observed_value="< 0.0904 µM (active)"
compound=C[C@@H](O)C(=O)N1[C@@H]2CC3CC[C@]2(CS1(=O)=O)C3(C)C observed_value="> 100 µM (inactive)"
compound=C=C1C(=O)O[C@H]2[C@@H](O)[C@H](C)CCC/C(C)=C/CC[C@@]3(C)O[C@@H]3C[C@@H]12 observed_value="6.43 µM (inactive)"
compound=Fc1ccccc1-c1cc(S)c2cc3c(cc2n1)OCO3 observed_value="4.26 µM (inactive)"
compound="CCOC(=O)/C=C1\\Nc2ccccc2C12CCc1c([nH]c3ccccc13)C2C(=O)OCC (configuration not stated)" observed_value="11.8 µM (inactive)"
compound="N#Cc1c(-c2ccccc2)cc(-c2ccccc2)n(C2OC(CO)C(O)C(O)C2O)c1=S (configuration not stated)" observed_value="72.3 µM (inactive)"
